# reported GI50; entries follow
- Tested on: K562
- method-notes: NCI tumour cell line growth inhibition, 48 h
Activity calls are given as the source filed them. Rule as the data show it: active = GI50 up to about 1.1 µM and inactive = higher.
measured-property: GI50

[
  {
    "compound": "O=c1c(C(c2ccccc2)c2c(O)oc3cc(O)ccc3c2=O)c(O)oc2cc(O)ccc12",
    "test-value": "> 100 µM (inactive)"
  },
  {
    "compound": "Cc1ccc2nc(/C=N/c3ccccc3Cl)cc(C)c2c1",
    "test-value": "19.1 µM (inactive)"
  },
  {
    "compound": "CCCCN(c1ccccc1)c1ncnc2c1cnn2C",
    "test-value": "28.2 µM (inactive)"
  },
  {
    "compound": "O=C(CC(C(=O)c1cccs1)c1ccsc1)c1cccs1 (stereo unspecified)",
    "test-value": "37.8 µM (inactive)"
  },
  {
    "compound": "Cc1ccccc1-c1cc(=O)c2cc(C)c(C)c(C(=O)O)c2o1",
    "test-value": "> 100 µM (inactive)"
  },
  {
    "compound": "CCCCCCCC[N+](C)(C)Cc1ccc(C[N+](C)(C)CCCCCCCC)cc1",
    "test-value": "28.4 µM (inactive)"
  },
  {
    "compound": "COc1ccc(/C=C/C(=O)C(C)C)cc1",
    "test-value": "32.8 µM (inactive)"
  },
  {
    "compound": "NCCCNC(=O)c1csc(NC(=O)c2csc(NC(=O)CCCN)n2)n1",
    "test-value": "> 100 µM (inactive)"
  },
  {
    "compound": "O=C(CN1CCCCC1)c1ccc2[nH]c(=O)oc2c1",
    "test-value": "> 100 µM (inactive)"
  },
  {
    "compound": "Cc1ccccc1NC(=O)Cc1csc(N/N=C2\\C(=O)Nc3ccccc32)n1",
    "test-value": "64.7 µM (inactive)"
  },
  {
    "compound": "O=C(O)/C=C/c1nc2ccccc2c(=O)o1",
    "test-value": "> 100 µM (inactive)"
  }
]

----------
# reported GI50; entries follow
- Tested on: ACHN
- method-notes: NCI tumour cell line growth inhibition, 48 h
The source made the active and inactive calls. No stated cut-off is given here; in the data, active = GI50 up to about 1.1 µM and inactive = higher.

[
  {
    "compound": "Cc1cc(C)c2c(c1)CC1(Cc3cc(C)c(C)cc3C1=O)C2=O (stereo not given)",
    "GI50": "> 100 µM (inactive)"
  },
  {
    "compound": "COc1cc2cnc3c4ccccc4ccc3c2cc1OC",
    "GI50": "> 100 µM (inactive)"
  },
  {
    "compound": "O=C(CSCC(=O)N/N=C/c1cccc(O)c1)N/N=C/c1cccc(O)c1",
    "GI50": "> 100 µM (inactive)"
  },
  {
    "compound": "CC(Cn1c2c(c3cc(O)ccc31)CCc1ccc(O)cc1-2)N(C)C (stereo not given)",
    "GI50": "15.8 µM (inactive)"
  },
  {
    "compound": "COc1cccc(-c2cc(O)c3cc(N)ccc3n2)c1",
    "GI50": "7.13 µM (inactive)"
  },
  {
    "compound": "COc1ccc2c3c([nH]c2c1[N+](=O)[O-])C(C)N(Cc1ccc([N+](=O)[O-])cc1)CC3 (stereo not given)",
    "GI50": "18.1 µM (inactive)"
  },
  {
    "compound": "COc1cc(OC)c2c(O)c(S(=O)(=O)c3ccc(C)cc3)c(=O)oc2c1",
    "GI50": "> 100 µM (inactive)"
  },
  {
    "compound": "O=C(c1ccccc1)C(Nc1ccc2ccccc2c1)c1ccccc1 (stereo not given)",
    "GI50": "48.8 µM (inactive)"
  },
  {
    "compound": "CC(C)NC(=O)OCc1c(COC(=O)NC(C)C)c(-c2ccc[n+](COC(=O)C(C)(C)C)c2)n2c1CCC2",
    "GI50": "38.8 µM (inactive)"
  },
  {
    "compound": "N#CC(C#N)=c1c(=O)c2c3ccccc3cc3cccc1c32",
    "GI50": "37.1 µM (inactive)"
  }
]

----------
- Test system: Hs-578T
- method-notes: NCI tumour cell line growth inhibition, 48 h
Active and inactive are the calls of the source. Rule as the data show it: active = GI50 up to about 1.1 µM and inactive = higher.
Outcomes: yes (active), no (inactive)

[
  {
    "compound": "C[C@H]1CC[C@@]2(NC1)O[C@H]1C[C@H]3[C@@H]4CC[C@H]5C[C@@H](O)CC[C@]5(C)[C@H]4CC[C@]3(C)[C@H]1[C@@H]2C",
    "tested-system": "Hs-578T",
    "assigned-label": "no"
  },
  {
    "compound": "c1csc(-c2ccc(-c3ccc(-c4cccs4)s3)s2)c1",
    "tested-system": "Hs-578T",
    "assigned-label": "no"
  },
  {
    "compound": "O=c1c(C(c2ccccc2)c2c(O)oc3cc(O)ccc3c2=O)c(O)oc2cc(O)ccc12",
    "tested-system": "Hs-578T",
    "assigned-label": "no"
  },
  {
    "compound": "CC1(C)CCC[C@]2(C)[C@H]3[C@H](C#N)c4cc(O)c(O)cc4O[C@@]3(C)CC[C@@H]12",
    "tested-system": "Hs-578T",
    "assigned-label": "no"
  },
  {
    "compound": "C=C1C(=O)O[C@H]2C/C(C)=C/CC/C(C)=C/CC[C@@](C)(O)[C@@H](I)C[C@@H]12",
    "tested-system": "Hs-578T",
    "assigned-label": "no"
  },
  {
    "compound": "CC(=O)OCC1OC(OCCCOP(=O)(OCCC#N)OCC2OC(n3cnc4c(N)ncnc43)C(OC(=O)c3ccccc3)C2OC(=O)c2ccccc2)C(OC(C)=O)C(OC(C)=O)C1OC(C)=O (configuration not stated)",
    "tested-system": "Hs-578T",
    "assigned-label": "no"
  },
  {
    "compound": "Cc1nc2cc(C(F)(F)F)ccc2[nH]c1=O",
    "tested-system": "Hs-578T",
    "assigned-label": "no"
  },
  {
    "compound": "O=C(/C=C/c1ccc2c(c1)OCO2)CC(=O)C(=O)c1c[nH]c2ccccc12",
    "tested-system": "Hs-578T",
    "assigned-label": "no"
  },
  {
    "compound": "O=C(Cc1ccccc1)NNc1nc(NNC(=O)c2ccncc2)nc(Nc2cccc(Cl)c2)n1",
    "tested-system": "Hs-578T",
    "assigned-label": "no"
  },
  {
    "compound": "O=c1[nH]c(Nc2nc3ccccc3[nH]2)nc(O)c1-c1ccccc1",
    "tested-system": "Hs-578T",
    "assigned-label": "no"
  },
  {
    "compound": "COc1ccc(-c2cc(-c3ccccc3)nc(/N=C\\c3ccccc3)n2)c(O)c1",
    "tested-system": "Hs-578T",
    "assigned-label": "no"
  },
  {
    "compound": "COc1cccc2c1C(=O)c1c(O)c3c(c(O)c1C2=O)C[C@@](O)(C(=O)CO)CC3OC1CC(N)C(OC2CCCCO2)C(C)O1 (some centres not stated)",
    "tested-system": "Hs-578T",
    "assigned-label": "yes"
  },
  {
    "compound": "COc1ccc(OC)c2c1C[C@@H]1C(C#N)N3[C@H](Cc4c(OC)ccc(OC)c4[C@@H]3C)C(=O)N1[C@H]2C (some centres not stated)",
    "tested-system": "Hs-578T",
    "assigned-label": "no"
  },
  {
    "compound": "Cc1ccc(-c2cc(N)n(-c3nc4c(c(=O)n(C)c(=O)n4C)n3C)n2)cc1",
    "tested-system": "Hs-578T",
    "assigned-label": "no"
  },
  {
    "compound": "Clc1ccc(Cc2nc3cc(CCN4CCN(c5ccccc5)CC4)ccc3[nH]2)cc1",
    "tested-system": "Hs-578T",
    "assigned-label": "no"
  },
  {
    "compound": "C/C=C1/CN2CCc3c([nH]c4ccccc34)[C@@H]2C[C@@H]1Cc1nccc2c1[nH]c1cc(O)ccc12",
    "tested-system": "Hs-578T",
    "assigned-label": "no"
  },
  {
    "compound": "CCCc1cn2c(/C=N/NC(=N)N)c(-c3ccc([N+](=O)[O-])cc3)nc2s1",
    "tested-system": "Hs-578T",
    "assigned-label": "no"
  }
]

----------
- Test system: OVCAR-8
- method-notes: NCI tumour cell line growth inhibition, 48 h
Active and inactive are the calls of the source. No stated cut-off is given here; in the data, active = GI50 up to about 1.1 µM and inactive = higher. Square brackets hold non-standard residues; d marks the D form. Peptide text beside a SMILES is read from it. * marks the point of attachment. ξ: configuration not given here. ξW = NC(Cc1c[nH]c2ccccc12)C(=O)O; X29 = O=C(O)[C@H]1CCC[C@H]1N*; ξF = NC(Cc1ccccc1)C(=O)O; Boc = CC(C)(C)OC(=O)*; ξK = NCCCCC(N)C(=O)O; ξT = CC(O)C(N)C(=O)O; tBu = CC(C)(C)*

[
  {
    "compound": "CC(C)(NO)/C(=N\\O)c1ccco1",
    "tested-system": "OVCAR-8",
    "GI50": "> 100 µM (inactive)"
  },
  {
    "compound": "CCN(CC)c1ccc(/C=C/C2=NN(c3cccc(S(=O)(=O)O)c3)C3(C2)SCC(=O)N3c2nc3ccccc3s2)cc1 (centres undefined)",
    "tested-system": "OVCAR-8",
    "GI50": "33.6 µM (inactive)"
  },
  {
    "compound": "CC(C)CC1NC(=O)CCC(NC(=O)C(Cc2ccc(O)cc2)NC(=O)OCc2ccccc2)C(=O)NC(Cc2ccccc2)C(=O)NC(Cc2ccccc2)NC1=O (centres undefined)",
    "tested-system": "OVCAR-8",
    "GI50": "> 100 µM (inactive)"
  },
  {
    "compound": "C/C(=N\\NC(N)=S)c1sc(-n2nc(-c3ccccc3)cc2-c2ccccc2)nc1C",
    "tested-system": "OVCAR-8",
    "GI50": "> 100 µM (inactive)"
  },
  {
    "compound": "Cc1ccc(-c2cc(N)n(-c3nc4c(c(=O)n(C)c(=O)n4C)n3C)n2)cc1",
    "tested-system": "OVCAR-8",
    "GI50": "> 100 µM (inactive)"
  },
  {
    "compound": "CC(OC(C)(C)C)C(NC(=O)C(CCCCNC(=O)OC(C)(C)C)NC(=O)C(Cc1c[nH]c2ccccc12)NC(=O)C(N)Cc1ccccc1)C(=O)NC(Cc1ccccc1)C(=O)N[C@@H]1CCC[C@@H]1C(=O)O (some centres undefined) (H-[ξF][ξW][ξK](Boc)[ξT](tBu)[ξF]-X29)",
    "tested-system": "OVCAR-8",
    "GI50": "> 100 µM (inactive)"
  },
  {
    "compound": "NC(Cc1ccc(O)cn1)C(=O)O (centres undefined)",
    "tested-system": "OVCAR-8",
    "GI50": "> 100 µM (inactive)"
  },
  {
    "compound": "CC(=O)c1cc2c(s1)C(=O)c1ccccc1C2=O",
    "tested-system": "OVCAR-8",
    "GI50": "1.74 µM (inactive)"
  },
  {
    "compound": "Cc1ncc([N+](=O)[O-])n1CCNCCCCn1ccnc1[N+](=O)[O-]",
    "tested-system": "OVCAR-8",
    "GI50": "> 100 µM (inactive)"
  },
  {
    "compound": "O=C1Nc2cc([N+](=O)[O-])c(Br)cc2C1=O",
    "tested-system": "OVCAR-8",
    "GI50": "16.4 µM (inactive)"
  },
  {
    "compound": "N#CC(C(=O)CCC(=O)Nc1cccc(C(F)(F)F)c1)c1ccccc1 (centres undefined)",
    "tested-system": "OVCAR-8",
    "GI50": "> 100 µM (inactive)"
  },
  {
    "compound": "O=C1OC2(CC1C1(O)C3CC4CC(C3)CC1C4)C1CC3CC(C1)CC2C3 (centres undefined)",
    "tested-system": "OVCAR-8",
    "GI50": "35.1 µM (inactive)"
  },
  {
    "compound": "O=C(ON=C1c2ccccc2C(Br)C(Br)c2ccccc21)c1cc([N+](=O)[O-])cc([N+](=O)[O-])c1 (centres undefined)",
    "tested-system": "OVCAR-8",
    "GI50": "17.3 µM (inactive)"
  },
  {
    "compound": "O=C(CCCCCCCCCCc1ccccc1)C1=C(O)CC(O)CC1=O (centres undefined)",
    "tested-system": "OVCAR-8",
    "GI50": "49.7 µM (inactive)"
  }
]
